Attribution: ChEMBL document CHEMBL1800053

- test-details: Embryotoxicity in fertilized chicken embryo at 2.5 nmol/egg
- Assay type: toxicity, Gallus gallus
endpoint-name: Activity

Recorded results for 6 compounds are shown here.
C=CCCCC[C@@H](C)O[C@@H]1O[C@@H](C)[C@H](O)C[C@H]1OC(=O)C[C@H]1O[C@@H]2O[C@@]3(C)CC[C@H]4[C@H](C)CC[C@@H]([C@H]1C)[C@@]24OO3; 50%
C[C@H]1[C@@H](CCCOC(=O)CCCC[C@H](C)O[C@@H]2O[C@@H](C)[C@H](OC(=O)c3ccccc3)C[C@H]2OC(=O)c2ccccc2)O[C@@H]2O[C@@]3(C)CC[C@H]4[C@H](C)CC[C@@H]1[C@@]24OO3; Non-toxic
O=C1CC[C@H](N2C(=O)c3ccccc3C2=O)C(=O)N1; Toxic
C[C@@H]1CC[C@H]2[C@@H](C)C(=O)O[C@@H]3O[C@@]4(C)CC[C@@H]1[C@]32OO4; Non-toxic
C[C@H]1[C@@H](CC(=O)O[C@@H]2C[C@@H](O)[C@H](C)O[C@H]2O[C@H](C)CCCCCO)O[C@@H]2O[C@@]3(C)CC[C@H]4[C@H](C)CC[C@@H]1[C@@]24OO3; Non-toxic
C[C@H]1[C@@H](CCCOC(=O)CCCC[C@H](C)O[C@@H]2O[C@@H](C)[C@H](O)C[C@H]2O)O[C@@H]2O[C@@]3(C)CC[C@H]4[C@H](C)CC[C@@H]1[C@@]24OO3; Toxic

Note: attention shifts to another entry.
Quick check: Activity of `C[C@H]1[C@@H](CCOC(=O)CCCC[C@H](C)O[C@@H]2O[C@@H](C)[C@H](OC(=O)c3ccccc3)C[C@H]2OC(=O)c2ccccc2)O[C@@H]2O[C@@]3(C)CC[C@H]4[C@H](C)CC[C@@H]1[C@@]24OO3` ?
Toxic
